Entry source: PubChem BioAssay (NCI)

Test system: MDA-MB-435 melanoma
Experiment: NCI-60 one-dose screen, 48 h
Settings: 10 µM unless noted
This is part of a sample that, as a whole, favours compounds with a hit. Of some 83,000 tested, about 20% had one in any assay. Activity calls are given as the source filed them. The calls were made as follows: active = growth percent below 10; inactive = the rest.
# valid calls are TRUE (active), FALSE (inactive); nothing else

Examples from the recorded data:
{"Molecule": "CC(C)(C)c1nn(-c2ccccc2)c2c1C(=O)CSC(c1ccc3c(c1)OCO3)N2 (stereo not given)", "Category Label": "FALSE"}
{"Molecule": "CCSc1cnnc2ccccc12", "Category Label": "FALSE"}

**Query** How was CCCCc1nc(Cl)c(C2CC(c3ccc(S(N)(=O)=O)cc3)=NN2c2ccc(C#N)cc2)[nH]1 (stereo not given) classified in this test?
**Result** FALSE

**Query** How was `N=C(N)c1ccc(-c2ccc(-c3cccs3)s2)cc1F` classified in this test?
**Result** TRUE

**Query** How was `COc1ccc2[nH]cc(C3(c4c[nH]c5ccc(OC)cc45)C(=O)Nc4ccc(F)cc43)c2c1` classified in this test?
**Result** TRUE
